- Assay text: total protein half-life in vivo (active degradation + dilution); higher = more stable protein
- Run parameters: wild type E. coli NCM3722; growth: C-lim chemostat; doubling time 12 h
Quantity: total protein half-life in vivo (h)
Give bare numbers, in h.

QUERY: Using the record for MKYKHLILSLSLIMLGPLAHAEEIGSVDTVFKMIGPDHKIVVEAFDDPDVKNVTCYVSRAKTGGIKGGLGLAEDTSDAAISCQQVGPIELSDRIKNGKAQGEVVFKKRTSLVFKSLQVVRFYDAKRNALAYLAYSDKVVEGSPKNAISAVPVMPWRQ [P0AE91] , report its total protein half-life in vivo.
RESULT: 12.1

----------
- Assay text: total protein half-life in vivo (active degradation + dilution); higher = more stable protein
- Run parameters: wild type E. coli NCM3722; growth: P-lim chemostat; doubling time 12 h
Quantity: total protein half-life in vivo (h)
Numbers only, in h.

// below: answered sequences
[
  {
    "Residue sequence": "MERNVTLDFVRGVAILGILLLNISAFGLPKAAYLNPAWYGAITPRDAWTWAFLDLIGQVKFLTLFALLFGAGLQMLLPRGRRWIQSRLTLLVLLGFIHGLLFWDGDILLAYGLVGLICWRLVRDAPSVKSLFNTGVMLYLVGLGVLLLLGLISDSQTSRAWTPDASAILYEKYWKLHGGVEAISNRADGVGNSLLALGAQYGWQLAGMMLIGAALMRSGWLKGQFSLRHYRRTGFVLVAIGVTINLPAIALQWQLDWAYRWCAFLLQMPRELSAPFQAIGYASLFYGFWPQLSRFKLVLAIACVGRMALTNYLLQTLICTTLFYHLGLFMHFDRLELLAFVIPVWLANILFSVIWLRYFRQGPVEWLWRQLTLRAAGPAISKTSR",
    "Units symbol": "h",
    "total protein half-life in vivo": 11.6
  },
  {
    "Residue sequence": "MKQTQRHNGIIELVKQQGYVSTEELVEHFSVSPQTIRRDLNELAEQNLILRHHGGAALPSSSVNTPWHDRKATQTEEKERIARKVAEQIPNGSTLFIDIGTTPEAVAHALLNHSNLRIVTNNLNVANTLMVKEDFRIILAGGELRSRDGGIIGEATLDFISQFRLDFGILGISGIDSDGSLLEFDYHEVRTKRAIIENSRHVMLVVDHSKFGRNAMVNMGSISMVDAVYTDAPPPVSVMQVLTDHHIQLELC [P0ACL0]",
    "Units symbol": "h",
    "total protein half-life in vivo": 11.3
  },
  {
    "Residue sequence": "MRKIALILAMLLIPCVSFAGLLGSSSSTTPVSKEYKQQLMGSPVYIQIFKEERTLDLYVKMGEQYQLLDSYKICKYSGGLGPKQRQGDFKSPEGFYSVQRNQLKPDSRYYKAINIGFPNAYDRAHGYEGKYLMIHGDCVSIGCYAMTNQGIDEIFQFVTGALVFGQPSVQVSIYPFRMTDANMKRHKYSNFKDFWEQLKPGYDYFEQTRKPPTVSVVNGRYVVSKPLSHEVVQPQLASNYTLPEAK [P0AA99]",
    "Units symbol": "h",
    "total protein half-life in vivo": 1.45
  },
  {
    "Residue sequence": "MKKKILAFGLISALFCSTPAMADMNRTTKGALLGAGVGLLTGNGVNGVLKGAAVGAGVGAVTEKGRDGKNARKGAKVGAAVGAVTGVLTGNGLEGAIKGAVIGGTGGAILGKMK [Q7DFV3]",
    "Units symbol": "h",
    "total protein half-life in vivo": 5.14
  }
]

Now look at this entry.
QUERY: Using the record for MTDNPNKKTFWDKVHLDPTMLLILLALLVYSALVIWSASGQDIGMMERKIGQIAMGLVIMVVMAQIPPRVYEGWAPYLYIICIILLVAVDAFGAISKGAQRWLDLGIVRFQPSEIAKIAVPLMVARFINRDVCPPSLKNTGIALVLIFMPTLLVAAQPDLGTSILVALSGLFVLFLSGLSWRLIGVAVVLVAAFIPILWFFLMHDYQRQRVMMLLDPESDPLGAGYHIIQSKIAIGSGGLRGKGWLHGTQSQLEFLPERHTDFIFAVLAEELGLVGILILLALYILLIMRGLWIAARAQTTFGRVMAGGLMLILFVYVFVNIGMVSGILPVVGVPLPLVSYGGSALIVLMAGFGIVMSIHTHRKMLSKSV [P0ABG7] , report its total protein half-life in vivo.
RESULT: 11.9
